Data provenance: patent US20260083865A1

Test system: PC3-PIP tumor model
Set-up: species or system mice
Settings: mouse, in vivo
Numbered stars: 1 amine (or outer) side, 2 acyl side, 3 side chain; on linkers, the order of the positions; unused ones are H or OH. Bridge positions count the residues as written; N and C are the ends. Square brackets hold non-standard residues; d marks the D form. Peptide text beside a SMILES is read from it. * marks the point of attachment. X3 = O=C(O)CN1CCN(CC(=O)O)CCN(CC(=O)NCCCOCCOCCOCCCN*)CCN(CC(=O)O)CC1; DOTA = O=C(O)CN1CCN(CC(=O)O)CCN(CC(=O)*)CCN(CC(=O)O)CC1; X1 = O=C(CC1CCN([*:1])CC1)[*:2]; Cit = NC(=O)NCCC[C@H](N)C(=O)O; Suc = O=C(CCC(=O)[*:2])[*:1]; Tle = CC(C)(C)[C@H](N)C(=O)O; Aib = CC(C)(N)C(=O)O
Collected AUC ratio [T/K] values appear next to each entry.

| compound | AUC ratio [T/K] |
| --- | --- |
| C[C@@H](O)[C@H](NC(=O)CC1CCN(C(=O)CN2CCN(CC(=O)O)CCN(CC(=O)O)CCN(CC(=O)O)CC2)CC1)C(=O)NC(C)(C)C(=O)N[C@@H](Cc1ccccc1)C(=O)N[C@H]1CSSC[C@@H](C(=O)N[C@H](C(N)=O)C(C)(C)C)NC(=O)[C@H](CC(N)=O)NC(=O)C(C)(C)NC(=O)[C@H](CCCNC(=N)N)NC(=O)[C@H](CCCCN)NC1=O [PSM-0361] ({DOTA}-[X1]T[Aib]FCKR[Aib]NC[Tle]-NH2; disulfide 5-10) | 0.85 |
| C[C@@H](O)[C@H](NC(=O)[C@@H](NC(=O)[C@@H]1CSSC[C@H](NC(=O)[C@H](Cc2ccccc2)NC(=O)C(C)(C)NC(=O)[C@@H](NC(=O)CCC(=O)NCCCOCCOCCOCCCNC(=O)CN2CCN(CC(=O)O)CCN(CC(=O)O)CCN(CC(=O)O)CC2)[C@@H](C)O)C(=O)N[C@@H](CCCCN)C(=O)N[C@@H](CCCNC(N)=O)C(=O)NC(C)(C)C(=O)N[C@@H](CC(N)=O)C(=O)N1)C(C)(C)C)C(N)=O [PSM-0234] ({X3-Suc}-T[Aib]FCK[Cit][Aib]NC[Tle]T-NH2; disulfide 4-9) | 0.64 |

* * *

Molecular target: Fc-fusion protein of human PSMA (hPSMA-Fc) (Homo sapiens, UniProt Q04609)
Construct: purchased Acro Biosystems PSA-H5264
Sequence (Q04609 44-750 limits assumed): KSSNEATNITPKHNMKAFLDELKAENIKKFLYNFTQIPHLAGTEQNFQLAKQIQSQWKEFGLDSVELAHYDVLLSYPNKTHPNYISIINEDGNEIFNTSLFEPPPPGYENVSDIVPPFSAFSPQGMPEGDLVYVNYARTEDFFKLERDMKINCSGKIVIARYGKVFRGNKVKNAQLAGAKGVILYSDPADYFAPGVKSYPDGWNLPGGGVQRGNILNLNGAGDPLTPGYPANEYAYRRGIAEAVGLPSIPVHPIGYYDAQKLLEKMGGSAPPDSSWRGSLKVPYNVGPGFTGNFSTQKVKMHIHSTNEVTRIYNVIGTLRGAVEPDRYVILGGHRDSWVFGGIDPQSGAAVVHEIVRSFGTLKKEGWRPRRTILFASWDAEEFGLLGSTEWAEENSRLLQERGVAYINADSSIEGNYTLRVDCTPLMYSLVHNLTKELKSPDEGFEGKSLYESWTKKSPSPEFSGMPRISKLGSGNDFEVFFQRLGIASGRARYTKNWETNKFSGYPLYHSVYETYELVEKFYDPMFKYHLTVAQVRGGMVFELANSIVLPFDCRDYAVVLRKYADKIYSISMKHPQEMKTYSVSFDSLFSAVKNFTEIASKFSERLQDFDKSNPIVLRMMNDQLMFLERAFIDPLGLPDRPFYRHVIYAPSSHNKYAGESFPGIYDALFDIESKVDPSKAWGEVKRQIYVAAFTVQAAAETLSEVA
Assay: Surface plasmon resonance assay (Biacore T200, single cycle kinetic)
Format: binding
Details: pKD category for PSMA SPR activity assay, hPSMA-Fc, 25° C.; read-out: pKD CAT (converted)
Numbered stars: 1 amine (or outer) side, 2 acyl side, 3 side chain; on linkers, the order of the positions; unused ones are H or OH. Bridge positions count the residues as written; N and C are the ends. Square brackets hold non-standard residues; d marks the D form. Peptide text beside a SMILES is read from it. * marks the point of attachment. ξ: configuration not given here. DOTA = O=C(O)CN1CCN(CC(=O)O)CCN(CC(=O)*)CCN(CC(=O)O)CC1; Phe(4-Cl) = N[C@@H](Cc1ccc(Cl)cc1)C(=O)O; Phe(3-F) = N[C@@H](Cc1cccc(F)c1)C(=O)O; Arg(Me) = CNC(=N)NCCC[C@H](N)C(=O)O; X1 = O=C(CC1CCN([*:1])CC1)[*:2]; Lys(Me) = CNCCCC[C@H](N)C(=O)O; Tle = CC(C)(C)[C@H](N)C(=O)O; ξD = NC(CC(=O)O)C(=O)O; Aib = CC(C)(N)C(=O)O

| compound | Kd |
| --- | --- |
| CNCCCC[C@@H]1NC(=O)[C@@H](NC(=O)[C@H](Cc2cccc(F)c2)NC(=O)C(C)(C)NC(=O)[C@@H](NC(=O)CC2CCN(C(=O)CN3CCN(CC(=O)O)CCN(CC(=O)O)CCN(CC(=O)O)CC3)CC2)[C@@H](C)O)CSSC[C@@H](C(=O)N[C@H](C(N)=O)C(C)(C)C)NC(=O)[C@H](CC(N)=O)NC(=O)C(C)(C)NC(=O)[C@H](CCCNC(=N)NC)NC1=O [PSM-0553] ({DOTA}-[X1]T[Aib][Phe(3-F)]C[Lys(Me)][Arg(Me)][Aib]NC[Tle]-NH2; disulfide 5-10) | 0.0126 to 0.126 µM |
| CC(=O)N[C@@H](Cc1ccc(Cl)cc1)C(=O)N[C@H]1CSSC[C@@H](C(N)=O)NC(=O)[C@H](CC(N)=O)NC(=O)C(C)(C)NC(=O)[C@H](CCCNC(=N)N)NC(=O)[C@H](CCCCN)NC1=O [PSM-0524, Ac-Pcf-[Cys-Lys-Arg-Aib-Asn-Cys]-NH2] (Ac-[Phe(4-Cl)]CKR[Aib]NC-NH2; disulfide 2-7) | > 0.501 µM |
| CSCC[C@H](N)C(=O)N[C@H](C(=O)N[C@@H](C)C(=O)N[C@@H](Cc1ccccc1)C(=O)N[C@H]1CSSC[C@@H](C(=O)N[C@@H](CC(C)C)C(=O)N[C@H](C(=O)NC(CC(=O)O)C(=O)NCC(=O)N[C@@H](CO)C(N)=O)[C@@H](C)O)NC(=O)[C@H](CC(N)=O)NC(=O)[C@H](C)NC(=O)[C@H](CCCNC(=N)N)NC(=O)[C@H](CCCCN)NC1=O)[C@@H](C)O (stereo partly drawn) [PSM-0498] (H-MTAFCKRANCLT[ξD]GS-NH2; disulfide 5-10) | < 0.0126 µM |
